Experiment: in vivo
Details: po
This section presents molecules with their documented Tmax values.
ENDPOINT LABEL: Tmax (h)

In [3]: df
Out[3]:
                                   molecule  number
0  CCC(CC)O[C@@H]1C=C(C(=O)O)C[C@H](N)[C@H]1NC(C)=O [Active metabolite of oseltamivir, oseltamivir carboxylate]       8
1  CCOC(=O)C1=C[C@@H](OC(CC)CC)[C@H](NC(C)=O)[C@@H](N)C1 [Oseltamivir, reference compound]       3
